From: the supplement of paper PMC11780869

test system: Bacillus subtilis; assay: cleaved RNA product abundance (RNA/gDNA barcode ratio) relative to median wild-type variant (ratio to wild type); higher = more accumulation of the downstream cleavage product; settings: experiment (reporter, strain, medium): exp 8a: truncated aprE reporter, strain BJT201 with 2% xylose (RNase J1 expressed); cleavage site: glnRA (positions -5 to +31 mutated)
Hi, to clarify the labels: fulfilled covers cleaved RNA product abundance from 0.6 upward, not fulfilled covers anything below 0.6.

hey, is cleaved RNA product abundance for this one >= 0.6? CGACATGTCCCGCTTCTTTCATTAATCCGTTAGCAACTATTTTGCTATATACATGTACCTTTTAAGAGGAGGAAT
fulfilled

hey, is cleaved RNA product abundance for this one >= 0.6? CGACATGTCCCGCTTCTTTCATTAATCCGTTAGCAACTGGTTTGCTATATACATTTACTTTTTAAGAGGAGGAAT
fulfilled

hey, is cleaved RNA product abundance for this one >= 0.6? CGACATGTCCCGCTTCTTTCATTAATCCGTTAGCAACTGTTATGTTATATACATTTACCTTTTAAGAGGAGGAAT
not fulfilled

hey, is cleaved RNA product abundance for this one >= 0.6? CGACATGTCCCGCTTCTTTCATTATTCCGTTAGGAACTGTTTTGCTATATACATTTACCTTTTAAGAGGAGGAAT
not fulfilled

hey, is cleaved RNA product abundance for this one >= 0.6? CGACATGTCCCGCTTCTTTCATTAATCCGTAAGCAACTGTTTTGCTATATATATTTACCTTTTAAGAGGAGGAAT
not fulfilled

hey, is cleaved RNA product abundance for this one >= 0.6? CGACATGTCCCGCTTCTTTCATTATTCCGTTAGCAACTGTTTTGCTATATACATTTACCTTTTAAGAGGAGGAAT
fulfilled

hey, is cleaved RNA product abundance for this one >= 0.6? CGACATGTCCCGCTTCTTTCATTAATGCGTTAGCAACTGTTTTGCTATATACATTTACCTTTTAAGAGGAGGAAT
fulfilled

----------
test system: Bacillus subtilis; assay: cleaved RNA product abundance (RNA/gDNA barcode ratio) relative to median wild-type variant (ratio to wild type); higher = more accumulation of the downstream cleavage product; conditions: experiment (reporter, strain, medium): exp 2b: truncated aprE reporter, strain BJT200; cleavage site: cggR-gapA (positions -7 to +36 mutated)
Hi, to clarify the labels: satisfied covers cleaved RNA product abundance from 0.1 upward, not satisfied covers anything below 0.1.

hey, is cleaved RNA product abundance for this one >= 0.1? ACAGACGAAGGAGCCGCAAAGTAGTTATTAAGGGATGAATAATCACTCAATATAAATATCTCTCACTTATTTAAA
satisfied

hey, is cleaved RNA product abundance for this one >= 0.1? ACAGACGAAGGAGCCGCAAAGAAGTTATTAAGGGATGAATAATCCCTAAATTTAAATATCTCTCACTTATTTAAA
satisfied

hey, is cleaved RNA product abundance for this one >= 0.1? ACAGACGAAGGAGCCGCAAAGAAGTTATTAAGGGATGAATATTCCATCAATATAAATATCTCTCACTTATTTAAA
satisfied

hey, is cleaved RNA product abundance for this one >= 0.1? ACAGACGAAGGAGCCGCAAAGAAGTTATTAACAGATGAATAATCCCTCAATATAAATATCTCTCACTTATTTAAA
not satisfied

hey, is cleaved RNA product abundance for this one >= 0.1? ACAGACGAAGGAGCCGCAAAGAAGTTATTAACGGATGAATAATACCTCAATATAAATATCTCTCACTTATTTAAA
not satisfied

hey, is cleaved RNA product abundance for this one >= 0.1? ACAGACGAAGGAGCCGCAAAGGAGTTATTAAGGGATGAATAATCCCTCAATATAAATATCTCTCACTTATTTAAA
satisfied
